Listed here are compounds together with their documented pKi.
# tested-target: hCA I (Homo sapiens)
# Sequence (P00915 whole entry): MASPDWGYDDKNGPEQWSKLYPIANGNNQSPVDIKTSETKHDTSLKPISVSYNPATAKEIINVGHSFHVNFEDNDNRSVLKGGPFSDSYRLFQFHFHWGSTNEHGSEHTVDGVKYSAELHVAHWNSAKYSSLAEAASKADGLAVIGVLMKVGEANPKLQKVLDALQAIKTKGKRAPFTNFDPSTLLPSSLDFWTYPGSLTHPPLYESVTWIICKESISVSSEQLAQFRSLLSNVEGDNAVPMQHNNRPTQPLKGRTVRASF
# experiment-notes: Stopped-flow CO2 hydration inhibition assay, hCA I
# Format: biochemical
# setup-conditions: Stopped-Flow assay, mean from 3 different assays, errors ±5–10 %; read-out: KI hCA I
Scale note: pKi = -log10(concentration in M).

Completed entries (count: 2):
NS(=O)(=O)NCCNc1nonc1/C(=N\c1ccc(F)c(Br)c1)NO; 5.08
NS(=O)(=O)c1cccc(S(N)(=O)=O)c1; 4.60

Query: Give the reported pKi for NC(N)=Nc1nc(CSCC/C(N)=N/S(N)(=O)=O)cs1 (system: hCA I (Homo sapiens)).
Reply: 6.04
